Target: UniProt:P05979
Sequence (P05979 25-600): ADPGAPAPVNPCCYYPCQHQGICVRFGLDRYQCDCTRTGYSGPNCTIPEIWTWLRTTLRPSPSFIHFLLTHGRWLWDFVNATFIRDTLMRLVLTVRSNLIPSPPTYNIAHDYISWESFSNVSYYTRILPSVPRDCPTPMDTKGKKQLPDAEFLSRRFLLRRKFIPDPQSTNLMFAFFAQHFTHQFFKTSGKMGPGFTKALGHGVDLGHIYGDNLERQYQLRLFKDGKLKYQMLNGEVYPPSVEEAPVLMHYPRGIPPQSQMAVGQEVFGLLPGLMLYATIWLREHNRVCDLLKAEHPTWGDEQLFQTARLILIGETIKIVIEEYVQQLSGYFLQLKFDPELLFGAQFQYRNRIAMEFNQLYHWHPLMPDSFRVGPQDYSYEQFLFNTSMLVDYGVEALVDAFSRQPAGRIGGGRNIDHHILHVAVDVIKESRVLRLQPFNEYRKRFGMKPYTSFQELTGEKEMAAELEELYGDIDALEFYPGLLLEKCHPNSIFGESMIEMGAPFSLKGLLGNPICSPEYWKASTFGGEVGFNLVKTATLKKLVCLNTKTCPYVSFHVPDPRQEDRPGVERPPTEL
Test: COX functional assay
Type: biochemical
Conditions: read-out: Inhibition of COX-1 (%) Mean ± std. dev. (N=3)
Reported inhibition at 10 µM by item:
Answer with a number only, understood to be in %.

Exam item: // output inhibition at 10 µM; input C=C(C)[C@@H]1CC[C@]2(C(=O)O)CC[C@]3(C)[C@H](CC[C@@H]4[C@@]5(C)CC[C@H](O)C(C)(C)[C@@H]5CC[C@]43C)[C@@H]12 ; system UniProt:P05979
Marked response: 32

Exam item: // output inhibition at 10 µM; input C[C@H]1COC2=C1C(=O)C(=O)c1c2ccc2c1CCCC2(C)C ; system UniProt:P05979
Marked response: 0

Exam item: // output inhibition at 10 µM; input C[C@H]1[C@H](C)CC[C@]2(C)CC[C@]3(C)C(=CC[C@@H]4[C@@]5(C)CC[C@@H](O)[C@](C)(C(=O)O)[C@@H]5CC[C@]43C)[C@H]12 ; system UniProt:P05979
Marked response: 42

Exam item: // output inhibition at 10 µM; input Oc1ccc(/C=C/c2cc(O)cc(O)c2)cc1 [Resveratrol, reference compound] ; system UniProt:P05979
Marked response: 86

Taken from paper PMC2860736.
